src = ChEMBL document CHEMBL1127758

target: Proto-oncogene tyrosine-protein kinase Src (Homo sapiens, UniProt P12931)
Sequence (P12931 2-536 limits assumed): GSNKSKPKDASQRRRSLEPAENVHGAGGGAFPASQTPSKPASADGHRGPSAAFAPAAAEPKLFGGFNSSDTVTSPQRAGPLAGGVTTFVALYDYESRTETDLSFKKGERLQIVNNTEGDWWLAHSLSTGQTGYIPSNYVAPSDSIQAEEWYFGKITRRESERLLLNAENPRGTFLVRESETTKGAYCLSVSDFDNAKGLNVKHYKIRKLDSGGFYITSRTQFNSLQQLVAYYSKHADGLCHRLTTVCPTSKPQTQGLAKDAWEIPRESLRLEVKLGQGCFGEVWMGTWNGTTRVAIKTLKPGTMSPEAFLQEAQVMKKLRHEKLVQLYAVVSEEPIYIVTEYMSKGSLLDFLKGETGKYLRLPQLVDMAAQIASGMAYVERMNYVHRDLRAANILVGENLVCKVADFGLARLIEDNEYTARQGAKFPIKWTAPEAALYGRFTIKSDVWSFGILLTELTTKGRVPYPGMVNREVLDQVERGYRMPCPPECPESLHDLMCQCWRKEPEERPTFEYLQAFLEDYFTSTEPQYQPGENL
pIC50: −log10 of the molar value.

# line notation, pIC50
rows = [
    ("CN[C@H]1C[C@@H]2O[C@](C)([C@H]1OC)n1c3ccccc3c3c4c(c5c6ccccc6n2c5c31)C(=O)NC4=O", 6.10),
]

---

IC50 tested on cAMP-dependent protein kinase (PKA) (Homo sapiens, UniProt P22694+P17612+P22612): recorded values

# line notation, unit label, comparison symbol, IC50
measured = [
    ("COC(=O)c1ccc(C(=O)N(C)[C@H]2C[C@@H]3O[C@](C)([C@H]2OC)n2c4ccccc4c4c5c(c6c7ccccc7n3c6c42)C(=O)NC5)cc1", "µM", "=", 3.67),
    ("CN[C@H]1C[C@@H]2O[C@](C)([C@H]1OC)n1c3ccccc3c3c4c(c5c6ccccc6n2c5c31)C(=O)NC4=O", "µM", "=", 0.026),
    ("CO[C@H]1[C@@H](N(C)C(=O)C(F)(F)F)C[C@@H]2O[C@@]1(C)n1c3ccccc3c3c4c(c5c6ccccc6n2c5c31)C(=O)NC4", "µM", "=", 17),
    ("CNC(=S)N(C)[C@H]1C[C@@H]2O[C@](C)([C@H]1OC)n1c3ccccc3c3c4c(c5c6ccccc6n2c5c31)C(=O)NC4", "µM", "=", 1.6),
    ("CO[C@H]1[C@@H](N(C)C(=O)c2ccccc2)C[C@@H]2O[C@@]1(C)n1c3ccccc3c3c4c(c5c6ccccc6n2c5c31)C(=O)NC4=O", "µM", "=", 0.75),
    ("CO[C@H]1[C@@H](N(C)C(=O)C2CCCCC2)C[C@@H]2O[C@@]1(C)n1c3ccccc3c3c4c(c5c6ccccc6n2c5c31)C(=O)NC4", "µM", "=", 1.57),
    ("COC(=O)CN1Cc2c(c3c4ccccc4n4c3c3c2c2ccccc2n3[C@]2(C)O[C@H]4C[C@H](N(C)C(=O)c3ccccc3)[C@@H]2OC)C1=O", "µM", ">", 100),
    ("CO[C@H]1[C@@H](N(C)C(=O)c2cccc(Cl)c2)C[C@@H]2O[C@@]1(C)n1c3ccccc3c3c4c(c5c6ccccc6n2c5c31)C(=O)NC4", "µM", "=", 6.8),
    ("CN[C@H]1C[C@@H]2O[C@](C)([C@H]1OC)n1c3ccccc3c3c4c(c5c6ccccc6n2c5c31)[C@@H](O)NC4=O", "µM", "=", 3.3),
    ("CO[C@H]1[C@@H](N(C)C(=O)OC(C)(C)C)C[C@@H]2O[C@@]1(C)n1c3ccccc3c3c4c(c5c6ccccc6n2c5c31)C(=O)NC4", "µM", "=", 28),
]
